# Test system: HepG2
# procedure details: cell viability relative to DMSO; higher = less toxic
# test conditions: 72 h; 1 nM
value kind: cell viability (%)

[[record]]
molecule = "COc1cc(SC)ccc1C(=O)N1CCC(Cc2ccccc2)CC1"
reported_result = 104

[[record]]
molecule = "COc1cc(C#N)ccc1S(=O)(=O)Nc1ccc2c(c1)cc(C)c(=O)n2C"
reported_result = 106

[[record]]
molecule = "O=C(NOCC(O)CO)c1cc(Br)c(F)c(F)c1Nc1ccc(I)cc1F (stereo not given)"
reported_result = 99.5

[[record]]
molecule = "CN(c1ccccc1CNc1nc(Nc2ccc3c(c2)CC(=O)N3)ncc1C(F)(F)F)S(C)(=O)=O"
reported_result = 92.8

[[record]]
molecule = "CCOc1ccc2nc(S(N)(=O)=O)sc2c1 [ethoxzolamide]"
reported_result = 101

[[record]]
molecule = "CN(C/C=C/C#CC(C)(C)C)Cc1cccc2ccccc12"
reported_result = 99.4

[[record]]
molecule = "O=C(O)CNC(=O)c1c(O)c2ccccc2n(Cc2ccccc2)c1=O"
reported_result = 108

[[record]]
molecule = "O=C(CNC(=O)c1ccc(Cl)cc1)NO"
reported_result = 110

[[record]]
molecule = "Nc1nccs1"
reported_result = 104

[[record]]
molecule = "Oc1ccc(OCc2ccccc2)cc1"
reported_result = 91.6

